Reference source for all entries: patent US8575197B2

Target: human P2X3 receptor (Homo sapiens (Human), UniProt P56373)
Sequence (P56373 whole entry): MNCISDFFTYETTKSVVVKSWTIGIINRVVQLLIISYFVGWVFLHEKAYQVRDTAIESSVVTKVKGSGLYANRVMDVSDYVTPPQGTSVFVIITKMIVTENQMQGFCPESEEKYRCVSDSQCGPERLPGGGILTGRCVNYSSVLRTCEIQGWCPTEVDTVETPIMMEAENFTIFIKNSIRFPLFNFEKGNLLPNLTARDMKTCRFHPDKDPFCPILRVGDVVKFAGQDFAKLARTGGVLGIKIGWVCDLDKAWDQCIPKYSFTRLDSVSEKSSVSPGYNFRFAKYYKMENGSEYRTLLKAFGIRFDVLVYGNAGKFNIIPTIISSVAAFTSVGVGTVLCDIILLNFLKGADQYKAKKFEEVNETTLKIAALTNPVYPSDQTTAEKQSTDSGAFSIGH
Assay: P2X3 receptor inhibition, ATP-evoked Fluo-3 calcium fluorescence (FDSS 3000)
Settings: C6BU-1 cell transfected with human P2X3 receptor gene; ATP-evoked Fluo-3 fluorescence
Parameter: log10 IC50 (log10 of the value in nM)
// units: nM (pre-log); metric: IC50; scale: log10

Recorded log10 IC50 of COc1ccc(F)cc1C1C(C(=O)C(C)(C)C)=C(O)C(=O)N1c1ccc(-c2ccon2)cc1 (stereo not shown) [Compound I-021] , please.
2.58

How about COCCOc1ccccc1C1C(C(=O)CC(C)C)=C(O)C(=O)N1c1ccc(-c2ccc(C)s2)cc1 (stereo not shown) [Compound I-304] ?
1.32

How about COc1ccccc1C1C(C(=O)CC(C)C)=C(O)C(=O)N1c1ccc(-c2ccoc2)cc1 (stereo not shown) [Compound I-351] ?
2.00

How about CNC(=O)COc1ccccc1C1C(C(=O)C(C)(C)C)=C(O)C(=O)N1c1ccc(-c2ccon2)cc1 (stereo not shown) [Compound I-146] ?
2.86

How about COc1ccc(-c2n[nH]c3c2C(c2ccccc2OCCO)N(c2nc4ccc(OC)cc4s2)C3=O)cc1 (stereo not shown) [II-118] ?
2.63

How about CC(C)(C)C(=O)C1=C(O)C(=O)N(c2ccc(-c3ccsc3)cc2)C1c1cccnc1OCCO (stereo not shown) [Compound I-166] ?
1.28

How about Cc1ccc(-c2ccc(N3C(=O)C(O)=C(C(=O)C(C)C)C3c3ccccc3OC(C)C)cc2)s1 (stereo not shown) [Compound I-400] ?
1.34
